# tgt: human Norepinephrine Transporter (NET), SLC6A2 (gene 6530)
# protocol description: NVS_TR_hNET: NovaScreen (NVS) Transporter Assay for human Norepinephrine Transporter (NET) (AID 2283377);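 further: cell-free membrane protein extracted from CHO cells expressing human NET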
Inconclusive results are not listed. The source made the active and inactive calls. How the source made its calls: active means hit-call score of the fitted dose curve at least 0.9, where 1 is the maximum; inconclusive means response in the unintended direction; inactive means score below 0.9.
Hi there, use one of these labels in your reply, thanks! active, inactive

>>> print(df.to_string())
                                   compound  category
0                  Nc1nc(=S)c2[nH]cnc2[nH]1  inactive
1                 CCCCCCCCCCCCCCOS(=O)(=O)O    active
2  CC(C)NCC(O)c1ccc(O)c(O)c1 (configuration not stated)  inactive
3                        S=c1[nH]c2ccccc2s1    active
4             CCc1nc(N)nc(N)c1-c1ccc(Cl)cc1    active

### Prompt Can you look up the reported call for CSc1ccc(Oc2ccc(S(N)(=O)=O)cc2CN(C)C)cc1C for me?
### Response active

### Prompt Each compound tested received a call. Report the one for CN(C)C(=O)NC1(c2ccccc2)CCN(CCC[C@]2(c3ccc(Cl)c(Cl)c3)CCCN(C(=O)c3ccccc3)C2)CC1 .
### Response active

### Prompt So what was the verdict on O=C(O)CN(CC(=O)O)CC(=O)O in this test?
### Response inactive

### Prompt What outcome does the record of this test show for NC(=Nc1ccccc1)Nc1ccccc1 ?
### Response inactive

### Prompt How did this test come out for CCC(C)N(C)C(=O)c1cc2ccccc2c(-c2ccccc2Cl)n1 (configuration not stated) ?
### Response active

### Prompt What is the recorded call for this compound in the test? CCc1cc(C2=C(C(=O)O)N(c3ccccc3C(F)(F)F)S(=O)(=O)c3ccccc32)cc2c1OCO2
### Response inactive

### Prompt Would you mind telling me which call this test gave COc1ccc(OC(F)(F)F)cc1CN[C@H]1CCCN[C@H]1c1ccccc1 ?
### Response active

----------
# protocol description: ATG_SREBP_CIS: Attagene CIS-FACTORIAL HepG2 Assay for human Sterol Regulatory Element Binding (SREBP) (AID 2282962)
# test parameters: HepG2 Attagene cis-factorial SREBP reporter, mRNA; actives raise or lower the signal
The source made the active and inactive calls. How the source made its calls: active means hit-call score of the fitted dose curve at least 0.9, where 1 is the maximum; inactive means score below 0.9.
Form entry, call: pick from Y (active), N (inactive)

Record excerpt, results attached:
In [3]: df
Out[3]:
                                   compound  category
0  CCCCc1nc2cccnc2n1Cc1ccc(-c2ccccc2-c2nnn[nH]2)cc1         N
1          N[C@@H](Cc1c[nH]c2ccccc12)C(=O)O         N
2  CC(=O)OC1CC(C)OC(C)O1 (stereo not given)         N
3  Cc1cn([C@H]2C=C[C@@H](CO)O2)c(=O)[nH]c1=O         N
4                Cn1cnc2c1c(=O)[nH]c(=O)n2C         N
5                            O=Cc1ccccc1C=O         N

### Prompt So what was the verdict on O=C1c2c(O)cccc2Cc2cccc(O)c21 in this test?
### Response N

### Prompt Identify the outcome logged in this assay for the compound shown: CC(C)(C)c1ccccc1
### Response N

### Prompt Would you mind telling me which call this test gave Cc1occc(=O)c1O ?
### Response N

### Prompt Kindly provide the recorded test outcome for the following compound: Oc1ccccc1O
### Response N

### Prompt Test call for this compound, please: CC1=C(C)S(=O)(=O)CCS1(=O)=O
### Response N

### Prompt Status in this test for Nc1nc(Cl)nc2c1ncn2[C@H]1C[C@H](O)[C@@H](CO)O1 ?
### Response N

### Prompt Any idea what this test logged for CC(N)=O ?
### Response N

### Prompt Hello, I am checking results. What call was entered for COc1ccc(OC(F)(F)F)cc1CN[C@H]1CCCN[C@H]1c1ccccc1 ?
### Response Y

### Prompt What did the test return for O=C(O)CN(CC(=O)O)CC(=O)O ?
### Response N
